Source: the supplement of paper PMC9732359

- method.summary: protein stability index of a GFP-peptide fusion (yeast GPS) (PSI 1-4); higher = more stable; sorted into four equal gates, so the index is relative within each strain
- conditions.used: san1∆
Hi, to clarify the labels: yes (1) covers protein stability index from 3 upward, no (0) covers anything below 3.

Would you please look over these solved cases?
GYVSSLVEPSKVGQFDQ [FAS1] ... no (0)
LKWVAVVPDLGHLNGHT [SSN2] ... yes (1)
SDSNANAAVAGVANTDT [SWI3] ... yes (1)

**Q:** Does protein stability index meet or surpass 3 for SNTRTMTYKNKLTVCFD [MED2] ?
**A:** no (0)

**Q:** Does protein stability index meet or surpass 3 for MDMNEIEDKENSESTTQ [RPT5] ?
**A:** yes (1)
